B1: Nuclear receptor subfamily 4 group A member 2, residues 260 to 336; numbered along this chain, P43354 (parent)
chain: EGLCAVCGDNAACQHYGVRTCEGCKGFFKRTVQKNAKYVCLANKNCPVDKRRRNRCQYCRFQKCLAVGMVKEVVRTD

- Variants of: B1
- PROCEDURE_TEXT: abundance fitness (aPCA) (normalised: wild type 0, dead -1); higher = more abundant; growth selection in yeast, the domain comes from the species named
- CONDITION: Homo sapiens
Each record's abundance fitness is compared with category 1 (below -0.2), category 2 (-0.2 to below -0.03), category 3 (-0.03 or more) to give its class.

VARIANT_NAME | CLASS_NAME
L65W | category 1
Q33L | category 2
C24V | category 1
E72K | category 3
A66M | category 2
C64F | category 1
R60M | category 3
R75L | category 3
R75N | category 3
Y58G | category 1
R60F | category 2
K34V | category 2
P47F | category 2
C56W | category 1
K37C | category 2
C21L | category 1
E72N | category 3
Y38V | category 2
Y16R | category 2
P47A | category 2
R30D | category 2
K34R | category 1
